# Tested on: Enterococcus faecalis ATCC 29212
RECORDED_METRIC: MIC

Solved cases below.
CC[C@H](C)[C@H](NC(=O)[C@H](CCCCN)NC(=O)[C@H](Cc1c[nH]c2ccccc12)NC(=O)[C@H](CCCNC(=N)N)NC(=O)[C@@H](N)CCCNC(=N)N)C(=O)N[C@H](C(=O)N[C@H](C(=O)N[C@H](C(=O)N[C@@H](CCCNC(=N)N)C(=O)N[C@@H](Cc1c[nH]c2ccccc12)C(=O)N[C@@H](CCCNC(=N)N)C(=O)N[C@@H](CCCNC(=N)N)C(=O)O)[C@@H](C)CC)C(C)C)C(C)C 1.4 µM
CC[C@H](C)[C@H](NC(=O)[C@@H](NC(=O)[C@H](Cc1c[nH]c2ccccc12)NC(=O)[C@@H](NC(=O)[C@@H](N)CCCN=C(N)N)[C@@H](C)CC)C(C)C)C(=O)N[C@@H](CCCN=C(N)N)C(=O)N[C@@H](Cc1c[nH]c2ccccc12)C(=O)N[C@@H](CCCN=C(N)N)C(N)=O 6.75 µM
CC[C@H](C)[C@H](NC(=O)[C@H](CCCCN)NC(=O)[C@H](Cc1ccccc1)NC(=O)[C@@H](N)Cc1c[nH]c2ccccc12)C(=O)N[C@H](C(=O)N[C@@H](CCCCN)C(=O)N[C@@H](CCCCN)C(=O)O)[C@@H](C)CC > 1040 µM
CC[C@H](C)[C@H](NC(=O)[C@H](CCCN=C(N)N)NC(=O)[C@H](CCCN=C(N)N)NC(=O)[C@H](Cc1ccccc1)NC(=O)[C@H](Cc1ccccc1)NC(=O)CN)C(=O)N[C@@H](CCCN=C(N)N)C(=O)N[C@H](C(=O)N[C@@H](Cc1ccccc1)C(=O)N[C@@H](Cc1ccccc1)C(N)=O)[C@@H](C)O 32 µM
CC[C@H](C)[C@H](NC(=O)CNC(=O)[C@H](CCCCN)NC(=O)[C@H](C)NC(=O)[C@@H](N)Cc1ccccc1)C(=O)N[C@@H](C)C(=O)NCC(=O)N[C@@H](CCSC)C(=O)N[C@@H](C)C(=O)NCC(=O)N[C@@H](CCCCN)C(=O)N[C@@H](CC(C)C)C(=O)N[C@@H](Cc1ccccc1)C(N)=O > 200 µM

Moving on to another compound below.
INPUT: Form field - read-out: MIC; system: Enterococcus faecalis ATCC 29212; submitted item: "CC[C@H](C)[C@H](NC(=O)[C@H](Cc1ccccc1)NC(=O)[C@@H]1CCCN1C(=O)[C@@H](NC(=O)[C@@H](N)CC(C)C)C(C)C)C(=O)NCC(=O)N[C@@H](CCCN=C(N)N)C(=O)N[C@H](C(=O)N[C@@H](CC(C)C)C(=O)NCC(=O)NCC(=O)N[C@@H](CC(C)C)C(=O)N[C@@H](CC(C)C)C(=O)N[C@@H](C)C(=O)N[C@@H](CCCN=C(N)N)C(=O)N[C@@H](Cc1ccccc1)C(N)=O)[C@@H](C)O"
OUTPUT: > 64 µM

###

Parameter: MIC. Scope: all listed entries.
# Test system: Staphylococcus aureus
# PROTOCOL_SUMMARY: ≥ marks a high value that may be exact or a test limit, other limits are often not marked, values filed in µg/mL are converted to µM
Quick note: give the figure in µM, leave out the unit.

COMPOUND	MIC [µM]
CC(C)C[C@H](NC(=O)[C@H](C)NC(=O)CNC(=O)[C@H](CC(C)C)NC(=O)[C@@H](N)Cc1ccccc1)C(=O)N[C@@H](Cc1ccccc1)C(=O)N[C@@H](CCCCN)C(=O)N[C@@H](Cc1c[nH]c2ccccc12)C(=O)N[C@@H](C)C(=O)N[C@@H](CO)C(=O)N[C@@H](CCCCN)C(=O)O [FLGALFKWASK]	9.86

Moving on to another compound below.
INPUT: Any idea what its MIC is? The compound is CC[C@H](C)[C@H](NC(=O)[C@@H]1CCCN1C(=O)[C@H](CC(N)=O)NC(=O)[C@H](Cc1cnc[nH]1)NC(=O)[C@@H](NC(=O)[C@@H]1CCCN1C(=O)[C@H](C)NC(=O)[C@@H](N)CC(C)C)C(C)C)C(=O)O [LAPVHNPI]
OUTPUT: 3490
